system: Mycobacterium tuberculosis; assay: Antitubercular activity against active stage Mycobacterium tuberculosis H37Ra measured after 8 days by XTT assay; type: functional; details: 192 h
1 if IC50 is below 3 µg/mL. 0 if not; exact matches included in 0.

1) CC(=O)NC[C@H]1CN(c2ccc(N3CCOCC3)c(F)c2)C(=O)O1
1
2) CC(=O)NC[C@H]1CN(c2ccc(N3CC4(COC4)C3)c(F)c2)C(=O)O1
1
3) O=C1O[C@@H](CNC(=S)Nc2ccccc2F)CN1c1ccc(N2CC3(COC3)C2)c(F)c1
0
4) CC(=O)NC[C@H]1CN(c2ccc(C3=C[C@H]4CC[C@@H](C3)N4C(=O)OC(C)(C)C)c(F)c2)C(=O)O1
0
5) CC(=O)OCC(=O)NC[C@H]1CN(c2ccc(N3CC4(COC4)C3)c(F)c2)C(=O)O1
0
6) O=C(NC[C@H]1CN(c2ccc(N3CC4(COC4)C3)c(F)c2)C(=O)O1)c1ccno1
0
7) NC[C@H]1CN(c2ccc(N3CC4(COC4)C3)c(F)c2)C(=O)O1
1

Where do the numbers come from? From ChEMBL document CHEMBL3865816.
